The entries below are paired with their reported drug sensitivity score.
# Test system: Caco-2
# assay_procedure: drug sensitivity score (DSS) for viability; higher = more toxic; extreme values may be limits of the assay
# condition_description: 72 h
measure: drug sensitivity score

[[record]]
molecule = "COc1ccc(N2CCOCC2)c2sc(NC(=O)N3CCC(C)(O)CC3)nc12"
target_or_system = "Caco-2"
result = 0

[[record]]
molecule = "FC(F)(F)c1ccc(CNc2ccc(Cc3c[nH]c4ncc(Cl)cc34)cn2)cn1"
target_or_system = "Caco-2"
result = 0

[[record]]
molecule = "CCCCCC(C)N (centres undefined)"
target_or_system = "Caco-2"
result = 0

[[record]]
molecule = "COc1ccccc1C1(O)CCN(CCCn2c3ccccc3c3ccccc32)CC1"
target_or_system = "Caco-2"
result = 3.4

[[record]]
molecule = "N[C@H](Cc1ccccc1)C(=O)O"
target_or_system = "Caco-2"
result = 0

[[record]]
molecule = "COc1cc(CNC(=O)CCCC/C=C/C(C)C)ccc1O"
target_or_system = "Caco-2"
result = 0

[[record]]
molecule = "CCCCCCCCCCCCCCCC=O"
target_or_system = "Caco-2"
result = 0

[[record]]
molecule = "CCN(C(C)=O)c1cccc(-c2ccnc3c(C#N)cnn23)c1"
target_or_system = "Caco-2"
result = 0

[[record]]
molecule = "O=C(O)CCCCC(=O)O"
target_or_system = "Caco-2"
result = 0

[[record]]
molecule = "Cc1[nH]c(/C=C2\\C(=O)Nc3ccc(S(=O)(=O)Cc4c(Cl)cccc4Cl)cc32)c(C)c1C(=O)N1CCC[C@@H]1CN1CCCC1"
target_or_system = "Caco-2"
result = 5.1

[[record]]
molecule = "CCN(CC)CCNC(=O)c1c(C)[nH]c(/C=C2\\C(=O)Nc3ccc(F)cc32)c1C"
target_or_system = "Caco-2"
result = 5.7

[[record]]
molecule = "O=C1NCN(c2ccccc2)C12CCN(CCCC(c1ccc(F)cc1)c1ccc(F)cc1)CC2"
target_or_system = "Caco-2"
result = 0

[[record]]
molecule = "CC(C)(C)Cn1c(N)nc2ccc(-c3[nH]c(C(C)(C)C)nc3-c3ccc(F)cc3)nc21"
target_or_system = "Caco-2"
result = 2.9

[[record]]
molecule = "O=C(Cc1ccc(Cl)c(Cl)c1)N1CCCC[C@@H]1CN1CCCC1"
target_or_system = "Caco-2"
result = 0

[[record]]
molecule = "CCn1cc(C(=O)O)c(=O)c2ccc(C)nc21"
target_or_system = "Caco-2"
result = 0

[[record]]
molecule = "CNC(=O)c1cccc(-c2ccc3c(N4CCOC[C@@H]4C)nc(N4CCOC[C@@H]4C)nc3n2)c1"
target_or_system = "Caco-2"
result = 13.3

[[record]]
molecule = "CC(C)C[C@H](NC(=O)CNC(=O)c1cc(Cl)ccc1Cl)B1OC(=O)C(CC(=O)O)(CC(=O)O)O1 [ixazomib-citrate]"
target_or_system = "Caco-2"
result = 25.9

[[record]]
molecule = "O=C(Nc1cccc2cccnc12)c1ccc(N2C(=O)[C@@H]3[C@H](C2=O)[C@@H]2C=C[C@H]3C2)cc1 [endo-IWR-1]"
target_or_system = "Caco-2"
result = 0

[[record]]
molecule = "CC(C)NCC(O)c1ccc([N+](=O)[O-])cc1 (centres undefined)"
target_or_system = "Caco-2"
result = 0

